Entry source: paper PMC9090415

target: bacteriophage T4 DNA polymerase (Enterobacteria phage T4); construct: made in house; experiment: Counter-screen against bacteriophage T4 DNA polymerase; assay type: biochemical; conditions: DRC-2; 10'; concentration 5
Sequence (P04415 whole entry): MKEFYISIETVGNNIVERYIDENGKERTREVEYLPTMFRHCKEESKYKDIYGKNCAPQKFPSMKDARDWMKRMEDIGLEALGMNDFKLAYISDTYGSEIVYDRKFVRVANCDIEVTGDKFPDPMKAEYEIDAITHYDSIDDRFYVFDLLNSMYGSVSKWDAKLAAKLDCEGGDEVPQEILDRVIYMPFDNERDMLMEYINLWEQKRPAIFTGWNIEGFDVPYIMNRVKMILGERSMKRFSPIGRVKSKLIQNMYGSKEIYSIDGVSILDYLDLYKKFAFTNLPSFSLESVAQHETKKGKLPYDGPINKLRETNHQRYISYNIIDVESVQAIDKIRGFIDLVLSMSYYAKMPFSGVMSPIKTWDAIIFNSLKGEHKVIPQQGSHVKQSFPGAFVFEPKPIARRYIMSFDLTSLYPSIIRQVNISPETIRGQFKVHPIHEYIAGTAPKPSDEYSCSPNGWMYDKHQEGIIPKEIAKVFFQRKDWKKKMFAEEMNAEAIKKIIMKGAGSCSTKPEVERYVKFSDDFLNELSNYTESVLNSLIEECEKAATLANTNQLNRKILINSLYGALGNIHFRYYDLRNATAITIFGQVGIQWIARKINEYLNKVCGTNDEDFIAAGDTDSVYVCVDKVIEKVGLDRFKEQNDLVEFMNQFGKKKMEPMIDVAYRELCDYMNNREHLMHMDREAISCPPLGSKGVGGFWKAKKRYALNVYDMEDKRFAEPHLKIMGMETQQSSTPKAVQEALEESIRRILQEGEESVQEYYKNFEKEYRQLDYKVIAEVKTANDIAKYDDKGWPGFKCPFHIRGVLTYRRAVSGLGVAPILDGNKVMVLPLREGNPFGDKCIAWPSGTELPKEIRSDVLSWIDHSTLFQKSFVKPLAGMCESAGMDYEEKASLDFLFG

chemical-string: Cc1ccc2c(C(=O)NCCc3cccnc3)cc(NC(=O)C(C)C)cc2n1
% inhibition T4 10', %: 8

chemical-string: Cc1ccc(C)n1-c1ccc(C(=O)NNC(=O)c2ccc3nccnc3c2)cc1
% inhibition T4 10', %: 24

chemical-string: CCCCC(=O)N1CCc2c(nc3cc(-c4ccccc4Cl)[nH]n3c2=O)C1
% inhibition T4 10', %: -3

chemical-string: O=[N+]([O-])c1ccc(/C=C/c2ccc3ccccc3n2)o1
% inhibition T4 10', %: 25
